# TARGET OF ASSAY: T1, nfP2X7 CAR 1
# T1 construct: Expressed on T cells with truncated EGFR as marker gene; also called anti-nfP2X7 receptor CAR 1; nfP2X7 targeted CAR on EGFR+ T cells
# ASSAY SUMMARY: flow cytometry, nfP2X7 CAR T cells (EGFR+), anti-His-FITC detection
PARAMETER MEASURED: MFI HisTag FITC in EGFR+ Population

BINDER	MFI HisTag FITC in EGFR+ Population
CD33 BRIDGE variant B26 (Fab, V domains shown, Lintuzumab-based Fab bridging molecule) VH: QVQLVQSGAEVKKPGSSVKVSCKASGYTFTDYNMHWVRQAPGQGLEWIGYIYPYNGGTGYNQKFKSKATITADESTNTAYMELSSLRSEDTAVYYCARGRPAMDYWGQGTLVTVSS VL: DIQMTQSPSSLSASVGDRVTITCRASESVDNYGISFMNWFQQKPGKAPKLLIYAASNQGSGVPSRFSGSGSGTDFTLTISSLQPDDFATYYCQQSKEVPWTFGQGTKVEIKR	1.22
CD33 BRIDGE variant B3 (Fab, V domains shown, Lintuzumab-based Fab bridging molecule) VH: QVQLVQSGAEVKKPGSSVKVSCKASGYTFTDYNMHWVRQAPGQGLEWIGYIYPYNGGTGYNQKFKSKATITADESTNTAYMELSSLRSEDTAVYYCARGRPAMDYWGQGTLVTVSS VL: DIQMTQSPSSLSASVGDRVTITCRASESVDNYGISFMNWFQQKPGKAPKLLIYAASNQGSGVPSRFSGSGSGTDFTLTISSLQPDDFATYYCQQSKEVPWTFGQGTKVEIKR	1.04
CD33 BRIDGE variant B25 (Fab, V domains shown, Lintuzumab-based Fab bridging molecule) VH: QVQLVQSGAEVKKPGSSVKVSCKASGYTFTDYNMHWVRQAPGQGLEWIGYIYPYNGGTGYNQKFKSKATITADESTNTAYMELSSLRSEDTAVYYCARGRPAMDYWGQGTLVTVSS VL: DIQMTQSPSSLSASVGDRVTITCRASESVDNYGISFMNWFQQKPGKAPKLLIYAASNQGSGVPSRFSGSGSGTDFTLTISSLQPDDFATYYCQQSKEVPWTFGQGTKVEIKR	1.82

Batch: MFI HisTag FITC in EGFR+ Population for all items listed.
1. CD33 BRIDGE variant B8 (Fab, V domains shown, Lintuzumab-based Fab bridging molecule) VH: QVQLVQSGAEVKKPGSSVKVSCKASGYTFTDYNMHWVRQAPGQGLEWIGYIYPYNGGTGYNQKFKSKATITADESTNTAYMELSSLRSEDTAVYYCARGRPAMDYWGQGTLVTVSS VL: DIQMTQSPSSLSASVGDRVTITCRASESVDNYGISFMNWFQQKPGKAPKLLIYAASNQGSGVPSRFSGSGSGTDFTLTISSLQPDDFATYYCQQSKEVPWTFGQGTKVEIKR
2. CD33 BRIDGE variant B13 (Fab, V domains shown, Lintuzumab-based Fab bridging molecule) VH: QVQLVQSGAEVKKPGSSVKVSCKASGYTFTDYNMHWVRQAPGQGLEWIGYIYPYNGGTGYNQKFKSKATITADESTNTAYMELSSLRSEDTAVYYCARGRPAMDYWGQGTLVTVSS VL: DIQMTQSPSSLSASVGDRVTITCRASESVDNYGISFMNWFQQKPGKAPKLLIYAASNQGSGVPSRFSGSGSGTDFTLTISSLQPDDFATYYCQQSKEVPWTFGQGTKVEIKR
3. CD33 BRIDGE variant B14 (Fab, V domains shown, Lintuzumab-based Fab bridging molecule) VH: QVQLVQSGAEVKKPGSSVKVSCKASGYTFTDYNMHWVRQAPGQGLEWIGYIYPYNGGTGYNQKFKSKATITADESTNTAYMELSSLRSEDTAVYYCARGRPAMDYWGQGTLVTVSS VL: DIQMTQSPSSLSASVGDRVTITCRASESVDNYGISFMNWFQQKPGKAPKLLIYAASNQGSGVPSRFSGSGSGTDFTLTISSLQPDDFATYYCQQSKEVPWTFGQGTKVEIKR
4. CD33 BRIDGE variant B20 (Fab, V domains shown, Lintuzumab-based Fab bridging molecule) VH: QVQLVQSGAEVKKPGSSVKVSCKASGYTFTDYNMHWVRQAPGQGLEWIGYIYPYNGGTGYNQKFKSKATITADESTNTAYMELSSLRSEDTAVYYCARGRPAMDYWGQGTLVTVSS VL: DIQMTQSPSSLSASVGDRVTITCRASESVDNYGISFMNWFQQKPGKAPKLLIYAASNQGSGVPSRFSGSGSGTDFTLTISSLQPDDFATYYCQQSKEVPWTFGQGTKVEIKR
5. CD33 BRIDGE variant B1 (Fab, V domains shown, Lintuzumab-based Fab bridging molecule) VH: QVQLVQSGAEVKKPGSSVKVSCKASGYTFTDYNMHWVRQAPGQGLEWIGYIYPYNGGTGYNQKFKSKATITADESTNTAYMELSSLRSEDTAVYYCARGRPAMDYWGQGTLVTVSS VL: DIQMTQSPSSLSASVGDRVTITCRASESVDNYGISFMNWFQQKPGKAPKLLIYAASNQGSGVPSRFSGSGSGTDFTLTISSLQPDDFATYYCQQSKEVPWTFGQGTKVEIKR

1.34
1.35
1.44
1.29
1.08

Batch: MFI HisTag FITC in EGFR+ Population for all items listed.
1. CD33 BRIDGE variant B19 (Fab, V domains shown, Lintuzumab-based Fab bridging molecule) VH: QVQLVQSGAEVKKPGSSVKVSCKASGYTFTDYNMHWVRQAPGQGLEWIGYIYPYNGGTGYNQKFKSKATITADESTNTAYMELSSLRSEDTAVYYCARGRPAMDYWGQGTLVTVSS VL: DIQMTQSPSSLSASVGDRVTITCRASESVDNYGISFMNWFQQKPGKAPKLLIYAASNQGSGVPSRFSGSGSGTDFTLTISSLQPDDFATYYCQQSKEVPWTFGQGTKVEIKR
2. CD33 PURIFIED BRIDGE (Fab, V domains shown, also called old variant; original E200 CD33 Fab bridging molecule derived from lintuzumab) VH: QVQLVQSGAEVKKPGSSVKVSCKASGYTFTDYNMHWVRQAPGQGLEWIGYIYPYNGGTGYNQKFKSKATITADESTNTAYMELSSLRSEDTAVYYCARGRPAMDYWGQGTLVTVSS VL: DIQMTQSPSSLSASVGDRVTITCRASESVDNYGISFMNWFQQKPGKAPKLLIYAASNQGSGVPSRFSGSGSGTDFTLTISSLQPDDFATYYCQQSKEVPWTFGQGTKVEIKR

1.29
1.58
